Measurement target: T1, recombinant full-length mouse MASP-3 (mouse)
T1 construct: Entry is with leader; also called mouse full length MASP-3
T1 chain: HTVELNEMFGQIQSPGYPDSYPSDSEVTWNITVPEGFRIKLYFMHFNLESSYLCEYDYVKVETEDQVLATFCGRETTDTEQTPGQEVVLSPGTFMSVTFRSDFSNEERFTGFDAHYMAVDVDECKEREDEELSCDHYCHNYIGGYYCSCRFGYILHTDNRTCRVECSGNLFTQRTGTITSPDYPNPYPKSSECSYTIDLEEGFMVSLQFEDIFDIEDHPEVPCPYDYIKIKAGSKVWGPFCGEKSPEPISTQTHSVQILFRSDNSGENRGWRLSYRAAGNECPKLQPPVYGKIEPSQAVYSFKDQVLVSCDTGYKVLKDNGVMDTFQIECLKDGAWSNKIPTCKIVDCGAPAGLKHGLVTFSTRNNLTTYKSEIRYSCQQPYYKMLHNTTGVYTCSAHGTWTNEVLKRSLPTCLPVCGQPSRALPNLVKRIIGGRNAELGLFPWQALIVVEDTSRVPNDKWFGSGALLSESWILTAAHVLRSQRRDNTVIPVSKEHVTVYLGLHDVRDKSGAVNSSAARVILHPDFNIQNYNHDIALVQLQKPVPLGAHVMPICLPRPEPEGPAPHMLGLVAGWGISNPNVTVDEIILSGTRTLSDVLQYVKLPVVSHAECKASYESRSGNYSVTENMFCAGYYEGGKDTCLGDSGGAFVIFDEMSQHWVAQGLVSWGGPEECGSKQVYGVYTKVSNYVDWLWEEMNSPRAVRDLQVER
Measurement description: sandwich ELISA, full-length mouse MASP-3 captured by αM3-259
Mark each entry 1.0 if its EC50 sits below 0.2 nM, and 0.0 for all others.

Before answering, review these 4 worked examples.
{"Binder": "MASP-3 mAb 15D9 (mouse-human chimeric IgG4) (antibody, V domains shown) VH: QVQLKQSGTELMKPGASVNLSCKASGYTFTAYWIEWVKQRPGHGLEWIGEILPGSGTTNYNENFKDRATFTADTSSNTAYMQLSSLTSEDSAIYYCARSYYYASRWFAFWGQGTLVTVSS VL: DIVMTQSQKFMSTSIGDRVSVTCRASQNVGPNLAWYQQKPGQSPKALIYSASYRFSGVPDRFTGSGSGTDFTLTISNVQSEDLAEYFCQQYNRYPFTFGSGTKLEIKR", "Group": 1.0}
{"Binder": "MASP-3 mAb 4B6 (mouse-human chimeric IgG4) (antibody, V domains shown) VH: QVQLKQSGPELVKPGASVKLSCKASGYTFTSNDINWVKQRPGQGLEWIGWIYPRDGTTKYNEEFTDKATLTVDVSSSTAFMELHSLTSEDSAVYFCSSVEDSYWGQGTLVTVSS VL: DIVMTQSPSSLAVSAGEKVTMSCKSSQSLLISRTRKNYLSWYQQKPGQSPKLLIYWASTRESGVPDRFTGSGSGTDFTLTISSVQAEDLAVYYCKQSYNLYTFGGGTKLEIKR", "Group": 1.0}
{"Binder": "MASP-3 mAb 1B11 (mouse-human chimeric IgG4) (antibody, V domains shown) VH: QVQLKQSGAELVRPGASVKLSCKASGYTFTDYYINWVKQRPGQGLEWIARIYPGSGNTYYNEKFKGKATLTAEKSSSTAYMQLSSLTSEDSAVYFCARNYYISSPWFAYWGQGTLVTVSS VL: DIVMTQSQKFMSTSVGDRVSVTCKASQNVGPNVAWYQQKPGQSPKALIYSASYRYSGVPDRFTGSGSGTDFTLTISNVQSEDLADYFCQQYNRYPLTFGAGTKLELKR", "Group": 0.0}
{"Binder": "MASP-3 mAb 1F3 (mouse-human chimeric IgG4) (antibody, V domains shown) VH: QVQLKQSGPELVKPGASVKLSCKASGYTFTSNDINWVKQRPGQGLEWIGWIYPRDGSIKYNEKFTDKATLTVDVSSSTAYMELHSLTSEDSAVYFCSGVEDSYWGQGTLVTVSS VL: DIVMTQSPSSLAVSAGERVTMSCKSSQSLLISRTRKNYLSWYQQKPGQSPKLLIYWASTRESGVPDRFTGSGSGTDFTLTISSVQAEDLAVYYCKQSYNLYTFGGGTKLEIKR", "Group": 1.0}

Lab note: next binder to report on.
hey, is EC50 for MASP-3 mAb 13B1 (mouse-human chimeric IgG4) (antibody, V domains shown, also called mAb M3-1; M3-1) VH: QVQLKQSGAELMKPGASVKLSCKATGYTFTGKWIEWVKQRPGHGLEWIGEILPGTGSTNYNEKFKGKATFTADSSSNTAYMQLSSLTTEDSAMYYCLRSEDVWGTGTTVTVSS VL: DIVMTQSPSSLAVSAGEKVTMSCKSSQSLLNSRTRKNYLAWYQQKPGQSPKLLIYWASTRESGVPDRFTGSGSGTDFTLTISSVQAEDLAVYYCKQSYNIPTFGGGTKLEIKR lower than 0.2 nM or not?
1.0
